Target: hPPARβ (Homo sapiens, UniProt Q03181)
Sequence (Q03181 171-441 limits assumed): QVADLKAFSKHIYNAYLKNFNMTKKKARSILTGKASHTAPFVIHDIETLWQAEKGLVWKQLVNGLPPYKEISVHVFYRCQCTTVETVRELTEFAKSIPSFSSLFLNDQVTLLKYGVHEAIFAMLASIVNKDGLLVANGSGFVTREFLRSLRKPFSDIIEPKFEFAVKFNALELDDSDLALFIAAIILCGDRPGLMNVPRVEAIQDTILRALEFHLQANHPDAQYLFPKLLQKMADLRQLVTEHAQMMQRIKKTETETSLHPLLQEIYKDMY
Experiment: Transient transfection assay in HepG2 cells, Gal4-hPPARβ chimeric receptor, luciferase reporter
Type: cell-based
Settings: Hep G2-hBeta EC50, 24 hours incubation; read-out: EC50β nM (Group)
Catalogue of EC50 values

Field: example entries. Status: answers known.
COc1cc(OCC(=O)O)c(C)cc1SCc1ccc(/C=C/c2cccc(F)c2)cc1 [Example 29]; < 300 nM
O=C(O)COc1ccc(SCc2ccc(OCc3ccccc3)cc2)c2c1CCC2 [Example 69]; 2000 to 5000 nM
Cc1cc(SCc2ccc(-c3ccc(C(F)(F)F)cc3)cc2)c2c(c1OCC(=O)O)CCC2 [Example 28]; 1000 to 2000 nM
O=C(O)COc1ccc(SCc2cccc(-c3ccc(C(F)(F)F)cn3)c2)c2c1CCC2 [Example 53]; < 300 nM
O=C(O)COc1ccc(SCc2ccc(OCc3ccc(Cl)c(Cl)c3)cc2)c2c1CCC2 [Example 72]; 1000 to 2000 nM
COc1ccc(COc2ccc(CSc3ccc(OCC(=O)O)c4c3CCC4)cc2)cc1 [Example 68]; 1000 to 2000 nM

Next up:
# value of EC50, hPPARβ (Homo sapiens, UniProt Q03181), item Cc1cc(SCc2ccc(OCc3ccc(C(F)(F)F)cc3)cc2)ccc1OCC(=O)O [Example 15] = < 300 nM

* * *

Biological target: hPPARβ (Homo sapiens, UniProt Q03181)
Test: Transient transfection assay in HepG2 cells, Gal4-hPPARβ chimeric receptor, luciferase reporter
Assay type: cell-based
Conditions: Hep G2-hBeta EC50, 24 hours incubation; read-out: EC50β nM (Group)
Measurement Kind: EC50

Consider the worked cases shown below.
Cc1cc(SCc2cc(-c3ccc(C(F)(F)F)cc3)on2)c(Cl)cc1OCC(=O)O; 300 to 500 nM
O=C(O)COc1ccc(SCc2ccc(OCc3ccc(F)cc3F)cc2)c2c1CCC2; > 5000 nM
O=C(O)COc1ccc(SCc2ccc(OCc3ccc(OC(F)(F)F)cc3)cc2)c2c1CCC2; 500 to 1000 nM
O=C(O)COc1ccc(SCc2ccc(-c3ccc(C(F)(F)F)cc3)cc2)c2c1CCCO2; 500 to 1000 nM
O=C(O)COc1ccc(SCc2cccc(OCc3ccc(Cl)c(C(F)(F)F)c3)c2)c2c1CCC2; 1000 to 2000 nM
COc1cc(OCC(=O)O)c(C)cc1SCc1ccc(-c2ccc(Cl)cc2Cl)cc1; < 300 nM

Bench note, hPPARβ (Homo sapiens, UniProt Q03181): Cc1cc(SCc2ccc(-c3ccc(C(F)(F)F)cc3)cc2)ccc1OCC(=O)O , EC50 reads < 300 nM

hPPARβ (Homo sapiens, UniProt Q03181) assay, molecule Cc1cc(SCc2ccc(-c3ccc(C(F)(F)F)cn3)cc2)c(Cl)cc1OCC(=O)O , recorded EC50 = < 300 nM

The reported hPPARβ (Homo sapiens, UniProt Q03181) EC50 of Cc1cc(SCc2ccc(-c3ccc(C(F)(F)F)cn3)cc2)ccc1OCC(=O)O is 1000 to 2000 nM

Simply: O=C(O)COc1ccc(SCc2ccc(OCc3ccc(Cl)c(C(F)(F)F)c3)cc2)c2c1CCC2 , hPPARβ (Homo sapiens, UniProt Q03181), EC50 = < 300 nM

EC50 value, target or system hPPARβ (Homo sapiens, UniProt Q03181), for COc1cc(OCC(=O)O)c(C)cc1SCc1ccc(-c2ccc(C(F)(F)F)cc2)nc1 : < 300 nM

Field EC50 (hPPARβ (Homo sapiens, UniProt Q03181)), entry Cc1cc(SCc2ccc(OCc3ccc(Cl)cc3)cc2)ccc1OCC(=O)O : 2000 to 5000 nM

Summary: COc1cc(OCC(=O)O)ccc1SCc1ccc(-c2ccc(C(F)(F)F)cc2)cc1 , hPPARβ (Homo sapiens, UniProt Q03181), EC50 = < 300 nM

Noted EC50 for COc1cc(OCC(=O)O)c(C)cc1SCc1cc(-c2ccc(C(F)(F)F)cc2)no1 , tested on hPPARβ (Homo sapiens, UniProt Q03181): < 300 nM

// data source = patent US6964983B2
